FYI, the data here is from the supplement of paper PMC9732359.

- test: protein stability index of a GFP-peptide fusion (yeast GPS) (PSI 1-4); higher = more stable; sorted into four equal gates, so the index is relative within each strain
- test_context: ubr1∆
result_type: protein stability index

EKTYTKAPKIQRLVTPQ [RPS6A]; 2.22
DMLLHKYYIVSSSKSMI [SRB8]; 1.61
NGKLTSANERLFGNRPS [YML031W/NDC1]; 2.94
LEGTRVSLEERTKNLVS [SMC4]; 3.35
IRLSKILEDDFAVALKN [CDC53]; 3.04
GKLFSDIKVLKRQLIKE [YIL149C/MLP2]; 2.42
YPRLQDPSRELNVIIDQ [YCS4]; 3.07
KKSKIQLLDIAEFKKEN [LIN1]; 2.99
FRALGIIPDGEILEHIC [RPB2]; 2.79
SNELIEHFSHFGHIMED [YDL088C/ASM4]; 2.99
SGTPTLKKNIEPKKDKE [YOR098C/NUP1]; 3.05
YQNQFVEFCRNINSTDK [YML103C/NUP188]; 2.92
SRRLMKSLEDLSCQYDN [RPO31]; 1.27
MESEEVPLTKRYQHLEK [PCI8]; 3.14

----------
- test: protein stability index of a GFP-peptide fusion (yeast GPS) (PSI 1-4); higher = more stable; sorted into four equal gates, so the index is relative within each strain
- test_context: ubr1∆
result_type: protein stability index

AGTKITICIELKTVLHN [RGR1]; 1.49
DEVDAIGGRRFSEGTSA [RPT4]; 2.35
RNILHNTVPQVTNFNST [SRB5]; 2.44
MTTSAVSPTVGKLFSDI [YIL149C/MLP2]; 3.16
GYDDFQEEGSFEFGNMK [FAS2]; 3.33
REASKDNVDFILSNVDL [RPB3]; 3.32
YILSLVSIKDSTGCVVG [YMR129W/POM152]; 1.48
HEEDQKTNIIEKAMDYA [RPN12]; 3.02
ELTDNMSDFVPIDAGLN [MCD1]; 3.21
TSQYGTPSTETAASVFK [PRE3]; 2.27
HIKFSAGTEANAVSFDT [SRB4]; 2.21
ARYNWICDPVHKHREAR [RPL15A]; 3.22
PDYYMIIKYPVAFDNIN [SNF2]; 2.44
QFKKLTHAQRTGLSQIP [PRP8]; 2.53
ILSEILCQINKCSTRGL [YML103C/NUP188]; 2
TFTKKCLENARSQISEK [SIR4]; 3.07
QLAQIRQFLKANKTNLI [YML103C/NUP188]; 2.93
STSKFESQYPIVTEQPS [SWP82]; 2.5
ILSNVDLAMANSLRRVM [RPB3]; 2.46
KSHSTVSSSSRHHRKTE [ISW2]; 2.88
IKELEHLHDAVFVNTGL [SWP82]; 2.91
HLKILASSNFPFLNETK [RPC82]; 2.62
NERELNVFARLSRLLSL [RPC82]; 2.5
SIAEEIPIAIVLKACGI [RET1]; 1.66
SFVGDYMHDTELNYFVG [GRR1]; 3.22
TPSQIGVLLRDAHGVTQ [RPS13]; 2.05
PKGVILYGAPGTGKTLL [RPT2]; 3.13
QLGYIENSFYKKEASKT [POP1]; 2.39
DSDKGSKLNELKKELKL [SMC2]; 3.33
IQLSTVNRQSPLFFVDL [RGR1]; 1.76

----------
Recorded protein stability index values for a group of sequences are listed next.
- test: protein stability index of a GFP-peptide fusion (yeast GPS) (PSI 1-4); higher = more stable; sorted into four equal gates, so the index is relative within each strain
- test_context: san1∆
result_type: protein stability index

AHMWPRVHDQPLIWQLL [POP3]; 1.44
AELFNNDIKLFVDDTNV [PRP8]; 2.46
MILKLVCQVTKFGLLLQ [ECM29]; 2.46
KYHYKEEWLNTKDPDEQ [CSN9]; 3.05
IRPTELRLPFSAAMSID [PRP8]; 1.78
YVKDARKDTVSREVLRY [RPC40]; 3.33
RLGGDDLRIRIKLDIVV [SNF5]; 1.54
LLLDNGFNMKKITTSTE [SRP68]; 3.05
KWDITTRNSNNLAIVEL [BRR2]; 3.21
SQSLTSILVIVQKILPL [SWI1]; 1.48
NDQALIKVLLRQNRRPE [RET1]; 3.01
QIIFGVVEKKTVGSSNG [RPO21]; 1.66
AKKRRPAAKGKNLSFKR [RRP6]; 2.67
LESLKPIDDTMTLLTDS [MTW1]; 3.04
YEDSGSTYKHDRGIANI [SRB4]; 3.25

----------
Recorded protein stability index values for a group of sequences are listed next.
- test: protein stability index of a GFP-peptide fusion (yeast GPS) (PSI 1-4); higher = more stable; sorted into four equal gates, so the index is relative within each strain
- test_context: ubr1∆
result_type: protein stability index

AHRVRDLMDEELRKHAQ [SKI6]; 3.29
MENIKKSIDSKTPEEVE [ISW2]; 3.23
NGFAPISEVMEDRNQRI [FAS1]; 3.31
AKIISKAPEQFIENFLT [YML103C/NUP188]; 2.89
KKPSPQTIPIQIYGFEG [YGR119C/NUP57]; 3.08
NYAMTRNILHNTVPQVT [SRB5]; 1.74
KGYVFKISGGNDKQGFP [RPS6A]; 3

----------
Recorded protein stability index values for a group of sequences are listed next.
- test: protein stability index of a GFP-peptide fusion (yeast GPS) (PSI 1-4); higher = more stable; sorted into four equal gates, so the index is relative within each strain
- test_context: ubr1∆
result_type: protein stability index

SRDKTIKVWTIKGQCLA [ASC1]; 1.83
ITYGIIKVPTYIRKLIS [SRB8]; 1.36
MTLKEMYQMITMGGNAE [SMC4]; 2.77
QPSQQPQQAQQQPNPLH [GAL11]; 2.97
EGNYRNLNNLKQENAYL [RPB8]; 3.43
LQHELMISIIKLVTNVV [YML103C/NUP188]; 1.57
STIITKAINQELEDVAV [YCS4]; 3.04
ARLDGHDFLFNTIIRDG [RPN14]; 2.81
VGFLVQLDLTGIFLHGK [PRP8]; 2.39
QAMGVFLTNYNVRMDTM [RPB2]; 3.5
NELMRWPIVQKTYEPVL [RPN5]; 1.83
AVSIETALEHKVVNGNS [FAS2]; 1.4
SGELLQGIVRVYSKQAT [MCD1]; 1.76
LAPARVRRRFARGMTSK [RPS15]; 3.03
TNVEDPLAKKQTVRLIK [SIR2]; 2.96
EFNGFSLYQVDPSGSYF [PRE8]; 2.43
CRVDFKNPHDIIEGINA [RPL12A]; 2.43
GALEEITKDHKVLARQQ [FAS2]; 2.73
SATVKTSDLLGSHLSET [ECM29]; 2.86
DVDMEDRNLTEFDSTDT [RRI1]; 3.01
SIDDHPYNLNLFPNELY [RPC31]; 2.68
MVDESDKKQQTIDEQSQ [RPN1]; 3.43
AVSAASVVSMSNDVLKP [SIR2]; 2.75
RAVKEIKKFAKLHMGTD [RPL31A]; 1.58
STLYKYLKESKRKYDEI [SWI3]; 2.84
SPEGRLFQVEYSLEAIK [PUP2]; 2.62
ENDEEDIYMHDVNSASK [RRP4]; 3.31
LLNEYRPHQSRESLIML [MED7]; 1.98
ILTIIEEYKKSLYAYCH [GRR1]; 3.38
KPGIPRGNTKIHSMNEN [SIR3]; 3.23
AQQDSTNVRLYSLLLAS [ECM29]; 2.43
FTKNEEKLLKELENNEF [ITC1]; 2.24
NATHDEDEFIVQHDQIL [SWP82]; 3.04
LFLTAPDSCNMQEKAAH [YCS4]; 2.92
AFRRIMISEVPSVAAEY [RPC40]; 1.25
KVKILEQIDENWSKEDL [SWI3]; 2.89
LSVDDIRGAVGNSEAIP [RTT102]; 3.41
EEGEFIIDLYSLPEGLL [TAF14]; 3.52
VPEMIGSVVGIYNGKAF [RPS15]; 1.41
HPIRVLMASVILDSLPS [YDL116W/NUP84]; 1.62
YGRDDMENIKKSIDSKT [ISW2]; 3.03
KELDALQEKEQLYFKKK [ISW2]; 3.55
SKSAPSKKISNTAAALV [YAR002W/NUP60]; 3.14
FVMKTRRRKGISTGGFM [SNU114]; 3.18
LVDTPSNNTAATADTTH [NUT1]; 3.17
NTSAQHVESDKITAKTQ [IRR1]; 3.08
IRSSRSRGIVIGSGAMS [RPP1]; 2.46
EVAQYLQEIYQTDAIKS [RPN5]; 2.29
KQLEKRDYQRINKNSKI [POP4]; 2.69
NSDIANLRTQVTQQKRS [SMC1]; 3.08
KLFVSKEHAPYTDELEE [FAS2]; 1.83
ENEVENINATNTSVLMK [YCS4]; 3.36
KFPATNVTTILDEIFSG [ECM29]; 2.7
SRGNGGKKVLNKNQLLK [POP1]; 3.43
VQSGQIYINKSVPTNSA [RET1]; 3.33
KDPVDFVRQAAMIALSM [RPN2]; 1.97
QSSGKLKEYLDLVARTA [YDL116W/NUP84]; 2.74
MAIEIINDIRDDDIEKQ [YCG1]; 3.27
KYHYKEEWLNTKDPDEQ [CSN9]; 3.05
LLVKLSKRLPLRFPEHT [BRR2]; 2.42
HGSIIILGMLSLADNEI [YCS4]; 2.25
